system_name: Fibroblast growth factor receptor 3 (Homo sapiens, UniProt P22607)
Sequence (P22607 whole entry): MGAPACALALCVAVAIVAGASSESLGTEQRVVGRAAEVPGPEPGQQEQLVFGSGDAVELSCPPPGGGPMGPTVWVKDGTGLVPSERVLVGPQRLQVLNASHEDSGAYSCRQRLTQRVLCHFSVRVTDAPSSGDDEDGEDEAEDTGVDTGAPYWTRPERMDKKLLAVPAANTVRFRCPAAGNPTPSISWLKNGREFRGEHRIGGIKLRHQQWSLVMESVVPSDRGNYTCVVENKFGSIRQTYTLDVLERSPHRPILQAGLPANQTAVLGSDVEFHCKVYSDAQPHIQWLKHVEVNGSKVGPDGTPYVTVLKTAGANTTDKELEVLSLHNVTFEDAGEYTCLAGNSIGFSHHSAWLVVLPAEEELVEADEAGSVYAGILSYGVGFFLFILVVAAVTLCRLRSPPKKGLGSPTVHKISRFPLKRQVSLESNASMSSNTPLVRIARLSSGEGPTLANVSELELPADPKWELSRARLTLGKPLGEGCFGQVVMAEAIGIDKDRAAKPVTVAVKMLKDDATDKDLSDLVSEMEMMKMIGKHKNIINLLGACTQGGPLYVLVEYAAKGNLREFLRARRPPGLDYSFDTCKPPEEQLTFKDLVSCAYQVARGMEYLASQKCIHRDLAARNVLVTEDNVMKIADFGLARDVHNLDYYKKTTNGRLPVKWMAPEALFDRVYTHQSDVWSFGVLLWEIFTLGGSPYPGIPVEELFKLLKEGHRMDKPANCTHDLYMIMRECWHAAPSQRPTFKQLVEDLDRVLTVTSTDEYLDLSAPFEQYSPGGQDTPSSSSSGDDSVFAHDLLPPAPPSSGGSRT
measured_endpoint: IC50
For clarity, give the value followed by its unit.

Noted for O=C1Nc2ccc(CN3C(=O)CSC3=O)cc2/C1=C/c1cc(CN2CCOCC2)c[nH]1 : its IC50 reads 15 nM

###

Tested on: 4T1
experiment_summary: Antiproliferative activity against mouse 4T1 cells assessed as reduction in cell viability by MTT assay
Format: functional, cell-based
measured_endpoint: pIC50
pIC50 is a log-scale quantity: -log10 of the concentration expressed in molar.

For this compound ( COc1cc2nc(N3CCN(C(=O)C4COc5ccccc5O4)CC3)nc(N)c2cc1OC (stereo unspecified) ), measured pIC50 is 5.11

###

system_name: ALK tyrosine kinase receptor (Homo sapiens, UniProt Q9UM73)
Sequence (Q9UM73 whole entry): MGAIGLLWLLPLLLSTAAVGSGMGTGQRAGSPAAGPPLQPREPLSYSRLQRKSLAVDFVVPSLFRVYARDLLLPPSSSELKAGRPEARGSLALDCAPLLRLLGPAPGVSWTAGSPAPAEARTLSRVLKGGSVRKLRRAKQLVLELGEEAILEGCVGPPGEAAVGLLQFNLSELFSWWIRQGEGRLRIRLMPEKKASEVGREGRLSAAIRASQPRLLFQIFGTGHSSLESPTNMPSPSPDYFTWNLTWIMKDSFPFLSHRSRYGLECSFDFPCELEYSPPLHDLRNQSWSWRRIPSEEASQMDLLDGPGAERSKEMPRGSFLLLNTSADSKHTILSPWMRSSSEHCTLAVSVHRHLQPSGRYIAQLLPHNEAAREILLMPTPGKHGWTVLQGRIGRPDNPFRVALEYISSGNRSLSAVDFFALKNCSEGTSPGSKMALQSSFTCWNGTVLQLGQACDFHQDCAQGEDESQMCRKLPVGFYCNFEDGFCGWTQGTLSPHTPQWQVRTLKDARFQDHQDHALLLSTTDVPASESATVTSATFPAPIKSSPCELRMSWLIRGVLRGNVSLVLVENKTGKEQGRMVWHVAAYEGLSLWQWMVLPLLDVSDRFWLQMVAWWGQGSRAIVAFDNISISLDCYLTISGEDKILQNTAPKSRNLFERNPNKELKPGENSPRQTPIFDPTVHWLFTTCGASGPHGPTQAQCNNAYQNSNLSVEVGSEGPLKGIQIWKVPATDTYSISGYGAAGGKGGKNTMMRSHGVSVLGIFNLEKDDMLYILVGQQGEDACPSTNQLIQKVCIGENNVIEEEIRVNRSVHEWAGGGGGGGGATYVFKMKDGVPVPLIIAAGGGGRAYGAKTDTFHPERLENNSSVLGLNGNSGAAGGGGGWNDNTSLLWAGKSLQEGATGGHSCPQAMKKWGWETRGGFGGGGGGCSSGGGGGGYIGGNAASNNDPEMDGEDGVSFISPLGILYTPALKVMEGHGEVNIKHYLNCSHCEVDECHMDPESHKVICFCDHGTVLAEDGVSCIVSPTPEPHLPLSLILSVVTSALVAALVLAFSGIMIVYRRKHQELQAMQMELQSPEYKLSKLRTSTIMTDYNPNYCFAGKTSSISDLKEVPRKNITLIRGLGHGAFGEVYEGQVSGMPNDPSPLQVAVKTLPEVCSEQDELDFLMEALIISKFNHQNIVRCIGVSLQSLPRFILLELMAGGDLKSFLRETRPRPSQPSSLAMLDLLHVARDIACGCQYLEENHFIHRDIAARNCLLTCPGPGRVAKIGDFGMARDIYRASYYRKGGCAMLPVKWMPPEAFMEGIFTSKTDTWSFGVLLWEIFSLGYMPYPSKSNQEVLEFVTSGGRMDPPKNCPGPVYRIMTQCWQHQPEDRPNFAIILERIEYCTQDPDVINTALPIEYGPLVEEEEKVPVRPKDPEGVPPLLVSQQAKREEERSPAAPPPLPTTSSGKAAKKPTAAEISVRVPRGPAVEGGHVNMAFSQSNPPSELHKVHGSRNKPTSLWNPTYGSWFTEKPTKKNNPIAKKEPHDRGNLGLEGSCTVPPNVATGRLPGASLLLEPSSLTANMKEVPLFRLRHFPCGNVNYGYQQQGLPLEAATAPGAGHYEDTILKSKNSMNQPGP
experiment_summary: Inhibition of ALK (unknown origin)
Listed here are compounds together with their documented log10 of IC50.
Response schema: value (number) is log10 of IC50 in units of nM.

Use these answered entries as a reference point.
Clc1ncccc1COCC1Cc2cn3ncnc(-c4cnn(C5CCNCC5)c4)c3c2C1 (configuration not stated); 0.27
c1coc(COCC2Cc3cn4ncnc(-c5cnn(C6CCNCC6)c5)c4c3C2)c1 (configuration not stated); -0.48
Fc1ccc(Cl)c(COCC2Cc3cn4ncnc(-c5cnn(C6CCNCC6)c5)c4c3C2)c1Cl (configuration not stated); -0.62

The reported value for CN1CCc2ccc(COCC3Cc4cn5ncnc(-c6cnn(C7CCNCC7)c6)c5c4C3)cc21 (configuration not stated) in terms of log10 of IC50 is 1.31

Per the record, C[C@@H](Oc1cc(C(=O)Nc2ccc(=O)n(C)c2)nnc1N)c1c(Cl)ccc(F)c1Cl has log10 of IC50 of 1.78

Field log10 of IC50 (entry c1cncc(COCC2Cc3cn4ncnc(-c5cnn(C6CCNCC6)c5)c4c3C2)c1 (configuration not stated) ) reads 0.20

Value of log10 of IC50 reported for the compound CNC(=O)c1ccccc1Nc1nc(Nc2ccc3c(c2)[C@@H](C)CNCC3)ncc1Cl is 0.90

###

system_name: Tyrosine-protein kinase receptor UFO (Homo sapiens)
Sequence (P30530 whole entry): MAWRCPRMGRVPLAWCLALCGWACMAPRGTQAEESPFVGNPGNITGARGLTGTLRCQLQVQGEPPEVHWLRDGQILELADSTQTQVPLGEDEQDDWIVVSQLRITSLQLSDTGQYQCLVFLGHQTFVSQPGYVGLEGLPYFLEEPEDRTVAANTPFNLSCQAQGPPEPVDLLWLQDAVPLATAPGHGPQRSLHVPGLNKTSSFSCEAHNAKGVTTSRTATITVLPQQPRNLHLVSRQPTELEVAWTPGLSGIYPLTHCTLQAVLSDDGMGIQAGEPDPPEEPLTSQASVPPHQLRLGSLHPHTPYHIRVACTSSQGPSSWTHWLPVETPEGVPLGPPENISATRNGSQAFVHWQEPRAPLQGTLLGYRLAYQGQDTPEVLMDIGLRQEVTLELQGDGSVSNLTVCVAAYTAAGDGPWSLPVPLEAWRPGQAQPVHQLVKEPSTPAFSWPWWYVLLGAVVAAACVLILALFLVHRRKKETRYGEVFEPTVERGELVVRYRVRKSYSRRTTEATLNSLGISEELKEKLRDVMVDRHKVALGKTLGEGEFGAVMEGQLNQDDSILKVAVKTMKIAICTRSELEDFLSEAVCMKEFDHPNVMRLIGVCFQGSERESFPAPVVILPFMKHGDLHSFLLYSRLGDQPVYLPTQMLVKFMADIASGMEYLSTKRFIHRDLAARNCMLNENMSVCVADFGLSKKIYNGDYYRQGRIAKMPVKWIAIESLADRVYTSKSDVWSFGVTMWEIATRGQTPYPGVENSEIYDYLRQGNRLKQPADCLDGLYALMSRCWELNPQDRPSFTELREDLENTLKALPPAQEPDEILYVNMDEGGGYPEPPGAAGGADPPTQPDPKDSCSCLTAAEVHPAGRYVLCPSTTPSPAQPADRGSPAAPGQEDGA
measured_endpoint: IC50 (µM)
Just the number in µM, nothing appended.

Short answer for Cn1cc(-c2cc3c(Oc4ccc(NC(=O)C5(C(=O)Nc6ccc(F)cc6)CC5)cc4)ncnn3c2)cn1 : IC50 was 0.026
